Ref: PubChem BioAssay (NCATS)

test: Quantitative High-Throughput drug screen in 47 multiple myeloma cell lines against the NCATS MIPE library collection: KMS11_JCRBsus cell viability assay (AID 1919873); settings: KMS11 myeloma viability, CellTiter-Glo ATP luminescence, 48 h; series mostly up to 45.8 µM; also: nearly all actives have a fitted effect of over 50% in size; also: potency is read from the fitted curve at half-maximal effect
Records with an inconclusive call do not appear. Active and inactive are the calls of the source. Calls follow the shape of the dose curve; as a rule, active = well fitted cell-killing curve with a large enough effect; inconclusive = small, poorly fitted or top-dose-only effect, or effect the other way; inactive = no such curve, though single readings can be large or run the other way.

COMPOUND: CCOC(=O)[C@H](CCc1ccccc1)N[C@@H](C)C(=O)N1[C@@H](C(=O)O)C[C@H]2CCC[C@@H]21
Potency: 6620 nM (active)
//
COMPOUND: C[C@H]1[C@@H](OC(=O)CCC(=O)O)O[C@@H]2O[C@@]3(C)CC[C@@H]4[C@H](C)CC[C@@H]1[C@@]24OO3
Potency: 1320 nM (active)
//
COMPOUND: Cn1cc(C=CC(=O)c2cccc(F)c2)cc1C=CC(=O)NO
Potency: 14800 nM (active)
//
COMPOUND: COc1cccc2c1C(=O)c1c(O)c3c(c(O)c1C2=O)C[C@@](O)(C(C)=O)C[C@H]3O[C@H]1C[C@H](N)[C@H](O)[C@H](C)O1
Potency: 93.5 nM (active)
//
COMPOUND: CON=C(C(=O)N[C@@H]1C(=O)N2C(C(=O)O)=C(CSC(=O)c3ccco3)CS[C@H]12)c1csc(N)n1
Potency: inactive
//
COMPOUND: Cc1noc(-c2ccc(CSCCC(=O)O)cc2)c1NC(=O)OC(C)c1ccccc1Cl (stereo not drawn)
Potency: inactive
//
COMPOUND: Oc1cc2c(cc1O)C1c3ccc(O)c(O)c3OCC1(O)C2 (stereo not drawn)
Potency: inactive
//
COMPOUND: CC(=O)OCC(=O)[C@@]12N=C(C)O[C@H]1C[C@H]1[C@@H]3CCC4=CC(=O)C=C[C@]4(C)[C@@H]3[C@@H](O)C[C@@]12C
Potency: 935 nM (active)

====

target: Mitogen-activated protein kinase 10 (Mus musculus) (UniProt Q61831); experiment: JNK3 AlphaScreen Assay (AID 530); conditions: JNK3 lysate, c-Jun phosphorylation; series mostly up to 57.1 µM;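 also: kinase came from lysate of stimulated human HepG2 cells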
Inconclusive results are not listed. Calls of active or inactive are those of the source. The call rests on the fitted dose curve; in most records, active means well fitted curve in either direction with a large enough effect (not every such curve was filed as active); inconclusive means small, poorly fitted or top-dose-only effect, or another doubt; inactive means flat fitted curve, though single readings scatter.
Outcomes: active, inactive

MOLECULE: CN(C)CC[C@H](c1ccc(Cl)cc1)c1ccccn1
LABEL: inactive
--
MOLECULE: COc1ccc2c(c1OC)C(=O)OC2[C@H]1c2c(cc3c(c2OC)OCO3)CCN1C (some centres not stated)
LABEL: inactive
--
MOLECULE: O=C(O)C=Cc1ccc(Cn2ccnc2)cc1
LABEL: inactive
--
MOLECULE: O=c1c(O)c(-c2ccc(O)c(O)c2)oc2cc(O)ccc12
LABEL: active
--
MOLECULE: c1coc(CNc2ncnc3nc[nH]c23)c1
LABEL: inactive
--
MOLECULE: CCOC(=O)C1=C(C)NC(=S)NC1c1cccc(O)c1 (configuration not stated)
LABEL: inactive
--
MOLECULE: COc1ccc([C@@H]2CNC(=O)C2)cc1OC1CCCC1
LABEL: inactive

====

assay: Quantitative High-Throughput drug screen in 47 multiple myeloma cell lines against the NCATS MIPE library collection: AMO1_DSMZ cell viability assay (AID 1918927; also: nearly all actives have a fitted effect of over 30% in size); details: AMO1 myeloma cells viability, CellTiter-Glo ATP luminescence, 48 h; series mostly up to 45.8 µM
Results filed as inconclusive are left out. The source made the active and inactive calls. Calls follow the shape of the dose curve; as a rule, active = well fitted cell-killing curve with a large enough effect; inconclusive = small, poorly fitted or top-dose-only effect, or effect the other way; inactive = no such curve, though single readings can be large or run the other way.
Classes used: Y for active, N for inactive

STRUCTURE_SMILES: CC(=O)OC[C@@H]1O[C@@H](n2ccc(=O)[nH]c2=O)[C@H](OC(C)=O)[C@H]1OC(C)=O
LABEL: N

STRUCTURE_SMILES: CC(C)(O)[C@H]1CC[C@@](C)([C@H]2[C@@H](O)C[C@@]3(C)[C@@H]4C[C@H](O[C@@H]5O[C@H](CO)[C@@H](O)[C@H](O)[C@@H]5O)[C@H]5C(C)(C)[C@@H](O[C@@H]6OC[C@@H](O)[C@H](O)[C@@H]6O)CC[C@@]56C[C@@]46CC[C@]23C)O1
LABEL: N

STRUCTURE_SMILES: Cn1cnc(=N)c2[nH]cnc21
LABEL: Y

STRUCTURE_SMILES: CC(=O)N[C@@H]1[C@H](O[C@@H]2c3ccc(c(Cl)c3)Oc3cc4cc(c3O[C@H]3O[C@H](CO)[C@@H](O)[C@H](O)[C@H]3NC(=O)CCCCCCCC(C)C)Oc3ccc(cc3Cl)C[C@H]3NC(=O)[C@H](N)c5ccc(O)c(c5)Oc5cc(O)cc(c5)[C@H](NC3=O)C(=O)N[C@H]4C(=O)N[C@H]3C(=O)N[C@@H]2C(=O)N[C@@H](C(=O)O)c2cc(O)cc(O[C@H]4O[C@H](CO)[C@@H](O)[C@H](O)[C@H]4O)c2-c2cc3ccc2O)O[C@H](CO)[C@@H](O)[C@@H]1O
LABEL: N

STRUCTURE_SMILES: Cn1cnc2c(F)c(Nc3ccc(Br)cc3F)c(C(=O)NOCCO)cc21
LABEL: Y

STRUCTURE_SMILES: Oc1ccc(-c2ccc(-c3cc(Nc4cccc(CNC5CC5)c4)n[nH]3)cc2)c(O)c1
LABEL: Y

STRUCTURE_SMILES: c1ccc2c(Oc3nc(Nc4ccc(N5CCOCC5)cc4)c4ncn(C5CCCCC5)c4n3)cccc2c1
LABEL: Y

STRUCTURE_SMILES: CCOC(=O)[C@@H](N)Cc1ccc(-c2cc(O[C@H](c3ccc(Cl)cc3-n3ccc(C)n3)C(F)(F)F)nc(N)n2)cc1
LABEL: Y

====

assay: qHTS of pediatric cancer cell lines to identify multiple opportunities for drug repurposing: Primary screen for DAOY cells (AID 1347090); details: DAOY medulloblastoma viability, CellTiter-Glo luminescence, 48 h; series mostly up to 46 µM; also: nearly all actives have a fitted effect of over 55% in size
Inconclusive results are not listed. Active and inactive are the calls of the source. The call rests on the fitted dose curve; in most records, active means well fitted cell-killing curve with a large enough effect; inconclusive means small, poorly fitted or top-dose-only effect; inactive means flat fitted curve, though single readings scatter.
Outcome codes: T (active), F (inactive)

STRUCTURE_SMILES: Cn1cnc2c(F)c(Nc3ccc(Br)cc3F)c(C(=O)NOCCO)cc21
LABEL: F
--
STRUCTURE_SMILES: C[N+](C)([O-])CCNc1ccc(NCC[N+](C)(C)[O-])c2c1C(=O)c1c(O)ccc(O)c1C2=O
LABEL: F
--
STRUCTURE_SMILES: COC(=O)C=CC(=O)OC
LABEL: T
--
STRUCTURE_SMILES: C=CCNC1=C2C[C@@H](C)C[C@H](OC)[C@@H](O)[C@@H](C)C=C(C)[C@H](OC(N)=O)[C@@H](OC)C=CC=C(C)C(=O)NC(=CC1=O)C2=O
LABEL: T
--
STRUCTURE_SMILES: CN(C)CCN1C(=O)c2cccc3cc(N)cc(c23)C1=O
LABEL: T

====

test: qHTS profiling of the MIPE4 collection as inhibitors of Plasmodium falciparum (3D7) proliferation (AID 743344);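 also: scaled between DMSO vehicle wells and 0.29 µM artemisinin as full inhibition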; details: P. falciparum 3D7 in erythrocytes, SYBR Green DNA fluorescence, 72 h; at 28.5 µM (top of the series) unless noted

MOLECULE: CS[C@H]1SC[C@@H]2C(=O)N(C)[C@H](C(C)C)C(=O)OC[C@H](NC(=O)c3cnc4ccccc4n3)C(=O)N[C@H](C)C(=O)N(C)[C@@H]1C(=O)N(C)[C@H](C(C)C)C(=O)OC[C@H](NC(=O)c1cnc3ccccc3n1)C(=O)N[C@H](C)C(=O)N2C
parasite growth, % of DMSO control: 7.68%
//
MOLECULE: COc1cccc2c1C(=O)c1c(O)c3c(c(O)c1C2=O)C[C@@](O)(C(=O)CO)C[C@@H]3O[C@H]1C[C@H](N)[C@@H](O)[C@H](C)O1
parasite growth, % of DMSO control: 3.7%
//
MOLECULE: COc1ccc2cc([S+]([O-])Cc3ncc(C)c(OC)c3C)nc2c1
parasite growth, % of DMSO control: 32.2%
//
MOLECULE: CC(=O)NC(CS)C(=O)O (configuration not stated)
parasite growth, % of DMSO control: 101%
//
MOLECULE: Cc1cnc(NC(=O)Nc2cc(Br)c(C)cc2OC[C@@H]2CNCCO2)cn1
parasite growth, % of DMSO control: 5.93%
//
MOLECULE: CN(C)c1ccc2cc(C(=O)N[C@@H](CCCN=C(N)CCl)C(=O)NCc3ccccc3)ccc2c1
parasite growth, % of DMSO control: 5.85%
//
MOLECULE: CCOC(=O)C=C[C@H](C[C@@H]1CCNC1=O)NC(=O)[C@@H](CC(=O)[C@@H](NC(=O)c1cc(C)on1)C(C)C)Cc1ccc(F)cc1
parasite growth, % of DMSO control: 22%
//
MOLECULE: COC(=O)C1C2CC3c4[nH]c5cc(OC)ccc5c4CCN3CC2CC(OC(=O)c2cc(OC)c(OC)c(OC)c2)C1OC (configuration not stated)
parasite growth, % of DMSO control: 10.2%
//
MOLECULE: Cc1ccc([N+](=O)[O-])cc1S(=O)(=O)N(C)N=Cc1cnc2ccc(Br)cn12
parasite growth, % of DMSO control: 5.89%
//
MOLECULE: c1cc(CN2CCCNCCNCCCNCC2)ccc1CN1CCCNCCNCCCNCC1
parasite growth, % of DMSO control: 91.4%
//
MOLECULE: N#Cc1c(NC(=O)c2cccc3ccccc23)sc2c1CCCC2
parasite growth, % of DMSO control: 69.2%
//
MOLECULE: C[C@H](NCc1ccc2c(c1)nc(NC(=O)c1ccc(-c3cn[nH]c3)s1)n2CCc1ccccc1)C(C)(C)C
parasite growth, % of DMSO control: 5.07%
//
MOLECULE: CCc1c(O)cc(O)c(C(=O)c2ccc(OCCN3CCOCC3)c(OC)c2)c1CC(=O)N(CCOC)CCOC
parasite growth, % of DMSO control: 4.87%
//
MOLECULE: OC[C@@H](O)[C@@H](O)[C@H](O)[C@@H](O)CO
parasite growth, % of DMSO control: 100%
//
MOLECULE: CCN(C(=O)c1c(O)c2c(Cl)cccc2n(C)c1=O)c1ccccc1
parasite growth, % of DMSO control: 94.2%
//
MOLECULE: Nc1nc(=O)n([C@H]2C[C@H](O)[C@@H](CO)O2)cc1F
parasite growth, % of DMSO control: 99.5%
//
MOLECULE: COc1ccnc2[nH]cc(C(=O)C(=O)N3CCN(C(=O)c4ccccc4)C[C@@H]3C)c12
parasite growth, % of DMSO control: 81%
